tested on: P12-Ichikawa; assay: cell viability relative to DMSO control; higher = less cytotoxic; conditions: RPMI 5 mM glucose + 10% FBS; 48 h; 0.000781 µM
Kindly state cell viability for each of the entries shown.
Entry rule: numbers only, all in %.

Checklist item: cell viability tested on P12-Ichikawa, entry "Nc1ncnc2c1c(-c1cnc3[nH]ccc3c1)nn2C1CCCC1" , value?
122

Would you mind doing C[N]1C=C(C2=C1C=CC=C2)\C3=C(\C(=O)NC3=O)C4=C5CC(CN)CC[N]5C6=C4C=CC=C6 (configuration not stated) as well?
97.2

Also "C=C(C)[C@H]1Cc2c(ccc3c2O[C@@H]2COc4cc(OC)c(OC)cc4[C@@H]2C3=O)O1" ?
108

Thanks! And "O=C(Nc1c(Cl)cncc1Cl)c1ccc(OC(F)F)c(OCC2CC2)c1" ?
103

// same read-out, input: "CC/1=C(/N2[C@H](SC1)[C@H](NC(=O)[C@H](N)\C3=C\C\C=C/C3)C2=O)C(O)=O"
99.5

Next entry: "COc1ncc(-c2ccc3nccc(-c4ccnnc4)c3c2)cc1N[S+](=O)([O-])c1ccc(F)cc1F"
139

Record: "CNC(=O)c1ccc(N2C(=S)N(c3ccc(C#N)c(C(F)(F)F)c3)C(=O)C23CCC3)cc1F"
88

For "O=C(O)c1ccc2c(c1)nc(Nc1cccc(Cl)c1)c1ccncc12" then?
112

Would you mind doing "CC(C)=CC[C@@H](O)C/1=C/C(=O)C2=C(O)C=CC(=C2C1=O)O" as well?
93.6

Check "C[C@@]12C[C@@]3(O)O[C@@H](O1)[C@]1(COC(=O)c4ccccc4)[C@H]3C[C@@]12O[C@@H]1O[C@H](CO)[C@@H](O)[C@H](O)[C@H]1O" too.
94.9

Also need COc1ccc(C2CNC(=O)C2)cc1OC1CCCC1 (configuration not stated) , thanks.
89

Also check "CN1CCCN=C1/C=C/c1cccs1.O=C(O)c1cc2ccccc2c(Cc2c(O)c(C(=O)O)cc3ccccc23)c1O"
109

Queued: "C=C[C@H]1CN2CC[C@H]1C[C@H]2[C@H](O)c1ccnc2ccc(OC)cc12"
95.9

Please give the result for "C\C1=C(\C=C(\C#N)C(=O)N1)C2=CC=NC=C2" too.
110

Continue with "CCOC(=O)C/1=C(O)/C(=O)N(CC2=CC=CC=C2)C1"
116

Try this compound too: "CNC[C@H](O)c1ccc(O)c(O)c1"
102

Moving on to the next compound: C/C=C1\C2C=C(C)CC1(N)c1ccc(=O)[nH]c1C2 (configuration not stated)
105

Then this compound: "C[S+]([O-])(=O)C1=CC=C(C=C1)C/2=C(/C(=O)OC2)C3=CC=CC=C3"
108

Repeat with "N=C(NCCCCCCNC(=N)NC(=N)Nc1ccc(Cl)cc1)NC(=N)Nc1ccc(Cl)cc1"
83.8

For "CC1(C)O[C@@H]2C[C@H]3[C@@H]4CCC5=CC(=O)C=C[C@]5(C)[C@H]4[C@@H](O)C[C@]3(C)[C@]2(C(=O)CO)O1" then?
90.3

And for "Cn1c(CNc2ccc(C(=N)N)cc2)nc2cc(C(=O)N(CCC(=O)O)c3ccccn3)ccc21" ?
100

Then "O=C(NC[C@H](O)CO)c1ccncc1Nc1ccc(I)cc1F" ?
101

And the next one, "O=C(Nc1cc2cc[nH]c2cn1)c1ccccc1" ?
93.1

Another: "CN1C[C@H]2c3ccccc3Oc3ccc(Cl)cc3[C@@H]2C1"
96.9

Next: OC1CCC(Nc2ncc3nc(Nc4c(F)cc(F)cc4F)n([C@@H]4CCOC4)c3n2)CC1 (some centres not stated)
113

Item: "O=C(Nc1ccccc1-c1cn2c(CN3CCNCC3)csc2n1)c1cnc2ccccc2n1"
80.4

Moving on to the next compound: O=C(O)C1=NC(C(=O)O)CC(/C=C/N2c3cc(O)c(OC4OC(CO)C(O)C(O)C4O)cc3CC2C(=O)O)=C1 (configuration not stated)
97.2
